Numbers sourced from paper PMC8897274.

# assay target: T1, PCNA_(1–2-3) heterotrimer of S. solfataricus (S. solfataricus, UniProt P57766 1-249; Q97Z84 1-245; P57765 1-244)
# T1 sequence 1: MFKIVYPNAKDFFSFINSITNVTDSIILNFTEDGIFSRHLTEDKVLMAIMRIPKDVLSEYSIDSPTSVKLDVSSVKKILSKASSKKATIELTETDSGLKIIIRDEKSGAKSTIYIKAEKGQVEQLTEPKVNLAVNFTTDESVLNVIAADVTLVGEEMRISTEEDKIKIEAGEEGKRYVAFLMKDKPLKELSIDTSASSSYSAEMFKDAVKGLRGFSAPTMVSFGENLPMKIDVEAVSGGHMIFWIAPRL
# T1 sequence 2: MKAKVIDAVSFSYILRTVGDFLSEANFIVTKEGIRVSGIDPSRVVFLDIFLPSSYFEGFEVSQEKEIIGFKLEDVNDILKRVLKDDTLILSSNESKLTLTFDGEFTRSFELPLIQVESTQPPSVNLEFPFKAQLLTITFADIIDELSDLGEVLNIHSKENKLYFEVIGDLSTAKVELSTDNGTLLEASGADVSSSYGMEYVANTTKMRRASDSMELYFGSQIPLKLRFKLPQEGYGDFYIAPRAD
# T1 sequence 3: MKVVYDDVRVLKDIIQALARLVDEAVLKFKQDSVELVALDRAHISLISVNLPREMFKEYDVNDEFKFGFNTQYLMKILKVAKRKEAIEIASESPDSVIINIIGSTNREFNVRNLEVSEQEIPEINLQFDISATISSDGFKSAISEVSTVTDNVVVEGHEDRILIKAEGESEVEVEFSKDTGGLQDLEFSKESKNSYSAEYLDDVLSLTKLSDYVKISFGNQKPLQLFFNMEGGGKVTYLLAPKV
# experimental details: fluorescence polarisation
Ends that are not written are not given here.
endpoint label: Kd (µM)
// return numeric value only (unit: µM, not printed)

query: Please list Kd recorded for the binder KSKQQSTGILGFLGTTS (also: 6-FAM label, position not given here) [fluorescently labeled Lig loop peptide (17 residues, PIP motif)]
result: 13.1
